Molecular target: human C1s protein (Homo sapiens)
Construct: purchased R&D Systems or Complement Technologies 2060-SE or A104
Sequence (P09871 16-688): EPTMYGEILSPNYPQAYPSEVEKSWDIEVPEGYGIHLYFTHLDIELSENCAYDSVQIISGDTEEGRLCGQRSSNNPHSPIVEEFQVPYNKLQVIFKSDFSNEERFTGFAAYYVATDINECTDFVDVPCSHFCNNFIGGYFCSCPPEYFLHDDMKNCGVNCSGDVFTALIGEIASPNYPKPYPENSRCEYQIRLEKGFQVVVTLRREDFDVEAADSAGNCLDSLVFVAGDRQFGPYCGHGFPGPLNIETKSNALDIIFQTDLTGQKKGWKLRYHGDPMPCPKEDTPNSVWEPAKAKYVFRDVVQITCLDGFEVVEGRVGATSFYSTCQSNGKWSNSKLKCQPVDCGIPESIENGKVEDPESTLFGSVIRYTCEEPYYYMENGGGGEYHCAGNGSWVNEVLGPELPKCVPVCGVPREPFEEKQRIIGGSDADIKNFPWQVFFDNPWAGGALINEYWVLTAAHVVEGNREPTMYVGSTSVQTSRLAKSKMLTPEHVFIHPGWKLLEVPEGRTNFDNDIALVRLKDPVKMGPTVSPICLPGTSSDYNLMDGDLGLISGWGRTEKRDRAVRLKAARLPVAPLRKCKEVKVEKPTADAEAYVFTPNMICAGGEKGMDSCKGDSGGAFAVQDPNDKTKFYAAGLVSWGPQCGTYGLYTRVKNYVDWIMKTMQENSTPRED
Experiment: recombinant C1s enzymatic assay (YLGR-Rh110-dPro substrate hydrolysis, fluorescence)
Assay type: biochemical
Details: recombinant human C1s 2.5 nM, substrate YLGR-Rh110-dPro 20 μM, 15 min pre-incubation, 60 min RT; read-out: rec. hC11s pIC50 (converted)
Structures can show the parent of a compound that is named as a salt.
measuredAttribute: log10 of IC50 (log10 of the value in nM)
Could you please treat all values as log10 of IC50 in nM?

The molecule listed as Nc1cnnc2cc(-c3cc(B(O)O)c(Oc4ccccc4)cc3-n3cccn3)ccc12 [Example 64, formic acid salt] has a reported log10 of IC50 of 1.09

The molecule listed as Nc1cnnc2cc(-c3cc(B(O)O)c(OC4CC(F)(F)C4)cc3-n3cccn3)ccc12 [Example 34, formic acid salt] has a reported log10 of IC50 of 1.06

The molecule listed as COc1cc(-n2cccn2)c(-c2ccc3c(N)nnc(C)c3c2)cc1B(O)O has a reported log10 of IC50 of 0.23

The molecule listed as Nc1cnnc2cc(-c3cc4c(cc3-n3cccn3)OCCOB4O)ccc12 has a reported log10 of IC50 of 0.10

The molecule listed as COc1cc(B(O)O)cc(-c2ccc3c(N)cnnc3c2)c1-n1cc(C(F)F)cn1 [Example 30, formic acid salt] has a reported log10 of IC50 of 0.35

The molecule listed as Nc1cnnc2cc(-c3cc(B(O)O)cc4c3-n3nccc3CCO4)ccc12 [Example 65, formic acid salt] has a reported log10 of IC50 of 0.38

The molecule listed as Nc1cnnc2cc(-c3cc4c(cc3-c3ncco3)OCCOB4O)ccc12 has a reported log10 of IC50 of 0.05

The molecule listed as COc1cc(-c2nccs2)c(-c2ccc3c(N)cnnc3c2)cc1B(O)O [Example 38, formic acid salt] has a reported log10 of IC50 of 0.01

The molecule listed as COc1cc(-c2nc[nH]n2)c(-c2ccc3c(N)cnnc3c2)cc1B(O)O has a reported log10 of IC50 of 0.02

The molecule listed as Cc1cc(-c2ncco2)c(-c2ccc3c(N)cnnc3c2)cc1B(O)O [Example 42, formic acid salt] has a reported log10 of IC50 of 0.31

The molecule listed as CC(C)Oc1cc(-n2cccn2)c(-c2ccc3c(N)cnnc3c2)cc1B(O)O [Example 39, formic acid salt] has a reported log10 of IC50 of 0.43

The molecule listed as COc1cc(-c2ncc(C)s2)c(-c2ccc3c(N)cnnc3c2)cc1B(O)O [Example 50, formic acid salt] has a reported log10 of IC50 of 0.07

The molecule listed as Nc1cnnc2cc(-c3cc(B(O)O)cnc3-n3cccn3)ccc12 has a reported log10 of IC50 of 0.65

The molecule listed as COc1cc(-c2cn[nH]c2)c(-c2ccc3c(N)cnnc3c2)cc1B(O)O has a reported log10 of IC50 of 0.80

The molecule listed as Nc1cnnc2cc(-c3cc4c(cc3-c3nccs3)OCCOB4O)ccc12 has a reported log10 of IC50 of 0.16

The molecule listed as COc1cc(-c2ncc(C(F)F)o2)c(-c2ccc3c(N)cnnc3c2)cc1B(O)O [Example 90, formic acid salt] has a reported log10 of IC50 of 0.01

The molecule listed as COc1cc(-c2ncc(C(F)F)s2)c(-c2ccc3c(N)cnnc3c2)cc1B(O)O has a reported log10 of IC50 of -0.13

The molecule listed as Nc1cnnc2cc(-c3cc(B(O)O)c(OC4CC4)cc3-n3cccn3)ccc12 [Example 89, formic acid salt] has a reported log10 of IC50 of -0.12

The molecule listed as COc1cc(-n2cc(C(F)(F)F)cn2)c(-c2ccc3c(N)cnnc3c2)cc1B(O)O [Example 81, formic acid salt] has a reported log10 of IC50 of 0.07

The molecule listed as Nc1cnnc2cc(-c3cc(B(O)O)ccc3-n3cncn3)ccc12 [Example 5, formic acid salt] has a reported log10 of IC50 of 0.12

The values you see were collected from patent US20260159533A1.
